Test system: A498 renal
Experiment: NCI-60 one-dose screen, 48 h
Settings: 10 µM unless noted
About 83,000 compounds went through this panel and 20% of them were active in at least one assay; those are over-represented in the sample as a whole. The source made the active and inactive calls. How the source made its calls: active means growth percent below 10; inactive means the rest.
Outcomes: active, inactive

compound=Cc1ccc2nc(SCc3ccccc3F)n(-c3ccccc3)c(=O)c2c1 qualitative_label=inactive
compound=CCCCCCCCc1cccc(CC(=O)Nc2ccc(C)cc2C(=O)O)c1 qualitative_label=inactive
compound="O=C(c1ccc(Cl)cc1)C1[C@H](c2ccccc2Cl)[C@@H](c2ccccc2)NC12C(=O)Nc1ccc(Br)cc12 (some centres undefined)" qualitative_label=active
compound=N#C/C(=C/c1ccc([N+](=O)[O-])cc1)c1nnc(NC(=O)c2ccc(-n3c(=O)[nH]c4ccccc4c3=O)cc2)s1 qualitative_label=inactive
compound=O=C(N/N=C/c1ccoc1)c1[nH]c2ccc(Br)cc2c1-c1ccccc1 qualitative_label=active
compound=Oc1cncc(-c2ccc3ncnc(N4CCc5cc(F)c(Cl)cc54)c3c2)c1 qualitative_label=active
compound="Cc1ccc(C2CC(c3ccc(NC(=O)Nc4ccccc4)cc3)=NN2c2ccc(S(C)(=O)=O)cc2)cc1 (centres undefined)" qualitative_label=active
compound=O=C(NNC(=O)c1ccc(OCc2nc3ccc(Cl)cc3[nH]2)cc1)Nc1ccc(Cl)c(C(F)(F)F)c1 qualitative_label=inactive
compound=COc1ccc(-c2nc3ccc(-c4nnc(SCC(=O)Nc5ccc(/C(C)=N\O)cc5)o4)cc3[nH]2)cc1 qualitative_label=inactive
compound=CCC(=O)c1c2c(c3ccc4c5ccccc5ccc4n13)C(=O)c1ccccc1C2=O qualitative_label=inactive
compound=COC(=O)c1cc(C(=O)CBr)n2c1ccc1c3ccccc3ccc12 qualitative_label=inactive
compound="CC(C)(C)C(=O)C1CC(C#N)=C2C=Cc3c(ccc4ccccc34)N21 (centres undefined)" qualitative_label=inactive
compound=COc1cc(CNC(=O)C[C@H](C)CCC=C(C)C)ccc1OCc1cn(-c2cccc(C(F)(F)F)c2)nn1 qualitative_label=inactive
compound=COc1cncc(-c2ccc3ncnc(N4CCc5ccc(Cl)cc54)c3c2)c1 qualitative_label=inactive
compound=CS(=O)(=O)Nc1cc(-c2ccc3ncnc(N4CCc5cc(F)c(Cl)cc54)c3c2)cnc1Cl qualitative_label=active
compound=COc1ccc2[nH]c(=O)c(CSc3ccccc3Nc3nccc(-c4ccc(C(F)(F)F)cc4)n3)cc2c1 qualitative_label=inactive
compound=CCCCCCCOc1ccc(S(=O)(=O)Nc2ccc(C)c(F)c2C(=O)O)cc1 qualitative_label=inactive
compound=Cc1oc(-c2ccccc2)nc1CN[C@@H]1C[C@@H]2C[C@H]([C@H]1C)C2(C)C qualitative_label=inactive
compound=COc1ccc(NC(=O)N/N=C/c2c[nH]c3ccccc23)cc1 qualitative_label=inactive

====

Examples of molecules with documented growth follow.
Tested on: T-47D breast
Test: NCI-60 one-dose screen, 48 h (100 = growth as untreated, 0 = no growth, -100 = all killed)
Details: 1 µM
Compounds without any hit were thinned out: in the full panel of roughly 83,000, 20% have a hit.
observed_property: growth (%)

query_smiles=CC/C(=C(\c1ccc(O)cc1)c1ccc(OCCNC)cc1)c1ccccc1 assayed_system="T-47D breast" assay_value=59.6
query_smiles=CC/C(=C(/c1ccc(O)cc1)c1ccc(OCCN(C)C(=O)COCCOCCNC(=O)c2ccc3c(c2)CN([C@@H]2CCC(=O)NC2=O)C3=O)cc1)c1ccccc1 assayed_system="T-47D breast" assay_value=28.6
query_smiles=CC/C(=C(/c1ccc(O)cc1)c1ccc(OCCN(C)C(=O)CCOCCNC(=O)Cc2ccc3c(c2)CN([C@@H]2CCC(=O)NC2=O)C3=O)cc1)c1ccccc1 assayed_system="T-47D breast" assay_value=20.9
query_smiles=CC/C(=C(/c1ccc(O)cc1)c1ccc(OCCN(C)C(=O)COCCOCCNC(=O)Cc2ccc3c(c2)CN([C@@H]2CCC(=O)NC2=O)C3=O)cc1)c1ccccc1 assayed_system="T-47D breast" assay_value=19.2
query_smiles=CC/C(=C(\c1ccc(O)cc1)c1ccc(OCCN(C)C(=O)CCOCCNC(=O)c2ccc3c(c2)CN([C@@H]2CCC(=O)NC2=O)C3=O)cc1)c1ccccc1 assayed_system="T-47D breast" assay_value=38.3

====

Tested on: UACC-257 melanoma
Assay: NCI-60 one-dose screen, 48 h (100 = growth as untreated, 0 = no growth, -100 = all killed)
Conditions: 10 µM unless noted
About 83,000 compounds went through this panel and 20% of them were active in at least one assay; those are over-represented in the sample as a whole.
Please use t whenever growth is not below 80%, and f whenever it is.

molecule=COc1ccc(OC)c(Cn2cc(C#N)c(N)c2C(=O)c2ccc(Br)cc2)c1 assayed_system="UACC-257 melanoma" qualitative_label=f
molecule="CC1=C(C(=O)OCc2ccccc2)C(c2cccc3ccccc23)n2c(nc3ccccc32)N1 (stereo unspecified)" assayed_system="UACC-257 melanoma" qualitative_label=f
molecule=Cc1cccc(-c2ccccc2Oc2ccc3nnc(Cl)n3n2)c1 assayed_system="UACC-257 melanoma" qualitative_label=t
molecule=Cc1nc(N)ncc1-c1ccc2ncnc(N3CCc4cc(F)c(Cl)cc43)c2c1 assayed_system="UACC-257 melanoma" qualitative_label=t
molecule=COc1ccccc1/C=C/c1cccc(NC(=S)NCCCCN(C)C)c1 assayed_system="UACC-257 melanoma" qualitative_label=f
molecule=CCCSc1nnc(-c2sc3nc4ccccc4n3c2C)o1 assayed_system="UACC-257 melanoma" qualitative_label=t
molecule=COc1cc(CNC(=O)C[C@H](C)CCC=C(C)C)ccc1OCc1cn(-c2ccc(Br)cc2)nn1 assayed_system="UACC-257 melanoma" qualitative_label=t
molecule=O=c1c(-c2nc(-c3ccccc3)c(-c3ccccc3)[nH]2)coc2ccc(F)cc12 assayed_system="UACC-257 melanoma" qualitative_label=f
molecule=c1n[nH]cc1-c1nc2ccc3cn[nH]c3c2c2c1CCCC2 assayed_system="UACC-257 melanoma" qualitative_label=t
molecule="Cc1cc(C2(c3cc(C)c(OCC(O)CNc4c(C)n(C)n(-c5ccccc5)c4=O)cc3C(C)C)OC(=O)c3ccccc32)c(C(C)C)cc1OCC(O)CNc1c(C)n(C)n(-c2ccccc2)c1=O (stereo unspecified)" assayed_system="UACC-257 melanoma" qualitative_label=f
molecule=C=CC[n+]1cccc2c3ccccc3ccc21 assayed_system="UACC-257 melanoma" qualitative_label=f
molecule=Nc1nn2c(-c3cc4cc(Br)ccc4oc3=O)ccnc2c1N=Nc1ccccc1 assayed_system="UACC-257 melanoma" qualitative_label=f
molecule="CCc1ccc(SC2c3cc(OC)ccc3Oc3nc(N)c(C#N)c(N)c32)cc1 (stereo unspecified)" assayed_system="UACC-257 melanoma" qualitative_label=f
molecule=COc1ccc(N=Nc2c(N)nn3c(-c4cc5ccccc5oc4=O)ccnc23)cc1 assayed_system="UACC-257 melanoma" qualitative_label=t
molecule="CN(C)CCOc1ccc(C(=O)C2[C@H](c3ccc(Cl)cc3)[C@@H](c3ccccc3)NC23C(=O)Nc2ccc(Cl)cc23)cc1 (stereo partly specified)" assayed_system="UACC-257 melanoma" qualitative_label=f
molecule=COc1ccc(NC(=O)N/N=C/c2c[nH]c3ccccc23)cc1 assayed_system="UACC-257 melanoma" qualitative_label=f
molecule="CC(C)(C)C(=O)C1CC(C#N)=C2C=Cc3c(ccc4ccccc34)N21 (stereo unspecified)" assayed_system="UACC-257 melanoma" qualitative_label=t

====

Test system: SNB-75 CNS
Assay: NCI-60 one-dose screen, 48 h (100 = growth as untreated, 0 = no growth, -100 = all killed)
Conditions: 10 µM unless noted
About 83,000 compounds went through this panel and 20% of them were active in at least one assay; those are over-represented in the sample as a whole.
Reported growth values are given for each entry in this list.
observed_property: growth (%)

molecule=CN(C)c1ccc(/C=C/c2n(Cc3ccc4ccccc4c3)c3ccccc3[n+]2Cc2ccc3ccccc3c2)cc1 observed_property=growth units_symbol=% assay_value=-84.3
molecule=Cn1cc(-c2cc(N)n3nc(-c4c[nH]c5ccc(Cl)cc45)cc3n2)c2cc(Br)cnc21 observed_property=growth units_symbol=% assay_value=-24.4
molecule=O=C(N=Nc1c(O)[nH]c2ccc(Br)cc12)c1ccc2nc(-c3ccc(Cl)cc3)[nH]c2c1 observed_property=growth units_symbol=% assay_value=-18
molecule="CN(C)c1nc(NCCNS(=O)(=O)c2ccc(C3=Nc4c(N)nc(N)nc4NC(c4ccc(Cl)cc4)C3)cc2)nc(N2CCOCC2)n1 (stereo not drawn)" observed_property=growth units_symbol=% assay_value=57.9
molecule=FC(F)(F)CN1CCN(CCn2c(C(F)(F)F)cc3c(Cl)ncnc32)CC1 observed_property=growth units_symbol=% assay_value=-32.1
molecule=O=C(CSc1nc2c(c(=O)[nH]1)CCCC2)Nc1ccccc1C(=O)O observed_property=growth units_symbol=% assay_value=125
molecule="O=C1CC(c2ccc(I)cc2)OC2C=Cc3ccccc3C12 (stereo not drawn)" observed_property=growth units_symbol=% assay_value=111
molecule=Cn1cc(-c2cc(N)n3nc(-c4c[nH]c5ccc(F)cc45)cc3n2)c2cccnc21 observed_property=growth units_symbol=% assay_value=-48.5
molecule="COc1ccc(C2=NN(C(=O)[C@H]3[C@@H](c4ccco4)c4sc(=O)[nH]c4S[C@@H]3C)C(c3ccc4ccccc4c3)C2)cc1 (stereo partly drawn)" observed_property=growth units_symbol=% assay_value=50.8
molecule=COc1cccc(C(N)=Nc2ccc(OCCCCCCCCn3cncn3)cc2)c1 observed_property=growth units_symbol=% assay_value=60.8
molecule=COc1ccc(N=Nc2c(N)nn3c(-c4ccc(OC)c(OC)c4)ccnc23)cc1 observed_property=growth units_symbol=% assay_value=82.3
molecule=Cc1ccc2c(c1)nc(-c1ccccc1)n2CC(=O)N=Nc1c(O)[nH]c2ccc(Cl)cc12 observed_property=growth units_symbol=% assay_value=-83
molecule="Oc1ccc(F)c(Nc2nc(SCCN3CCOCC3)nc3c2cnn3CC(Cl)c2ccc(Br)cc2)c1 (stereo not drawn)" observed_property=growth units_symbol=% assay_value=15.2
molecule="COc1c2c(c(Br)c3c1C(CCc1ccccc1)N(C)CC3)OCO2 (stereo not drawn)" observed_property=growth units_symbol=% assay_value=63.8
molecule=N/C(=N\c1nc2ccccc2s1)NC(=O)Nc1ccccc1[N+](=O)[O-] observed_property=growth units_symbol=% assay_value=19.5
molecule=COc1cc(/C=C/C(=O)c2ccc(S(=O)(=O)NCCNc3nc(N(C)C)nc(N4CCOCC4)n3)cc2)cc(OC)c1OC observed_property=growth units_symbol=% assay_value=20
molecule=CNc1nc2ccccc2n2c(-c3ccc(O)c(O)c3)cnc12 observed_property=growth units_symbol=% assay_value=-15.5
molecule=COc1cc2cc(C(=O)N3C[C@@H](CCl)c4c3cc(OC(=O)N(CCC(=O)N3CCN(C)CC3)C3CCCCC3)c3ccccc43)[nH]c2c(OC)c1OC observed_property=growth units_symbol=% assay_value=-75.7
